Entry source: ChEMBL document CHEMBL1201862

# Tested on: KM12
# PROTOCOL: NCI tumour cell line growth inhibition, 48 h
Activity calls are given as the source filed them. Cut-off read from the data, not from the text of the source: active = GI50 up to about 1.1 µM and inactive = higher.
Documented GI50 across a set of compounds

{"columns": ["COMPOUND", "RESULT"],
 "data": [
  ["Cc1ccc(-n2c(=S)[nH]c3ccc(Br)cc3c2=O)cc1", "> 100 µM (inactive)"],
  ["N#CC1(C#N)C(=O)c2ccncc2C1=O", "> 100 µM (inactive)"],
  ["Cc1cc2[nH]c(=NS(=O)(=O)c3cc(C)c(Cl)cc3S)[nH]c2cc1C", "46.2 µM (inactive)"],
  ["COc1cc(OC)cc(N(C)Cc2cnc3nc(N)nc(N)c3c2C)c1", "3.85 µM (inactive)"],
  ["CNn1c(-c2ccc(C)cc2)n[nH]c1=O", "> 100 µM (inactive)"],
  ["COc1ccc2c(c1)CCN=C2Cc1cc(OC)c(OC)cc1CCCl", "33.3 µM (inactive)"],
  ["Cc1ccc(S(=O)(=O)c2c(N)c3nc4ccccc4n3c3nc4ccccc4nc23)cc1", "> 100 µM (inactive)"],
  ["C[C@]12CCC(=O)C=C1CC[C@@H]1C2CC[C@]2(C)c3nn(-c4ccc(F)cc4)nc3CC12 (stereo partly specified)", "> 100 µM (inactive)"]
]}

CN1c2ccccc2N(C(=O)c2ccccc2)C(CC(=O)O)c2cccn21 (stereo unspecified) on KM12 gives GI50 = > 100 µM (inactive)

`O=C1Cc2c([nH]c3ccc(C(=O)O)cc23)-c2ccccc2N1` on KM12 gives GI50 = > 100 µM (inactive)

CCOC(=O)C12CCCC1(O)N(NC(=O)c1ccccc1)C(C)=C2C(=O)OC (stereo unspecified) on KM12 gives GI50 = > 100 µM (inactive)
